The values you see were collected from the supplement of paper PMC9170038.

Below, each entry is listed with its recorded apparent KD of K4 kissing-loop reporter.
tested on: K4 kissing-loop RNA reporter; experiment: apparent KD of K4 kissing-loop reporter; higher = weaker reporter binding; conditions: Eterna round: R107; input ligand: theophylline 20 uM
Please state the figure in nM; there is no need to write the unit.

Give its apparent KD of K4 kissing-loop reporter value. Item: AACACUCACGGAGUGAUGUUCUGGAAUAAACGAGGACCGGUACGGCCGCCACUCGAAAAUGAGUGAGUCCUACGAAAAGUAGGAC [Omei inspired 4]
405

Field request: apparent KD of K4 kissing-loop reporter | item: AGUGCACUGUCAGGAUAUAUACAGUGAUGUUGUGUAUGUCAGCAAGUCAAAGACUUGCUUUUCUGUGUAGAAGGGACUGUGUACA [Omei KL FMN B Exc A v2]
141

Continuing:
I have this sequence here, `GGUAGCAUGGCGGCCGCCACUGUCUACUGAGGCGGAGUGAUGUUCCGGUUUAAAUAACAAGUUCACAGGACCGGGCCAUGCUACC` , and I need its recorded apparent KD of K4 kissing-loop reporter.
471

Can you share its apparent KD of K4 kissing-loop reporter? I mean this sequence: AUCGUUGUCUGAGGAUAUCGGUUAUCUGUAGUGAUGUUACAGUAUAUUGAUAUUAUAGUUUCUUUUCGAGAAGGCAGACUACGUA [JR_Nu_ExcFMNB_Sub021]
65.4

If you can, please state the reported apparent KD of K4 kissing-loop reporter value of AGACUACCACACUGUCAAUAGACAGUGAACUAGGAUAUGCUGAUAAGCAGAAGGAGUGAUGUUCCUAAUAAGGUAGUCAUAUAAU [FmnAX 15 #SwitchBubble #StaticStem #K4Early] .
637

Returns the measured apparent KD of K4 kissing-loop reporter for the input sequence. Input: UCUGGUAUAUCUGAUACCAGAGUAUAGUAUCAAUUGAAUAUGGAGUGAUGUUCCAUACAACUCCCUUGGCAGCAGAUCUUCCUCU [Same State Theophylline B GF 23]
193

###

tested on: K4 kissing-loop RNA reporter; test: apparent KD of K4 kissing-loop reporter; higher = weaker reporter binding; details: Eterna round: R107; input ligand: tryptophan 2.4 mM;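 note: bound reporter read as fluorescence of individual clusters on recovered sequencing chips by microscopy, with normalized cluster intensities fitted with a binding model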
Endpoint name: apparent KD of K4 kissing-loop reporter (nM)
Kindly provide the numeric value in nM only, without the unit symbol.

Which apparent KD of K4 kissing-loop reporter reading was recorded for the sequence GCUAUGGUAGGAAGGAGCGCUUAUUUAUUUUUAAGAGUGAUGUUCGAUAGUAGAUAUUUAAAGCAGGUAGGUCGCCUACUAUAGC [Arginine B K4 13] ?
71.5

So what does the record say about apparent KD of K4 kissing-loop reporter for GAUGGGUAUCAAGGAUAUGCCACUAUUGACUCCUAGAUGGUCAACCAUAUAAUGCGAGUGAUGUUCGCAGAAGGUGAUUCUUAGC [theeternabot_exclusion_KL_FMN_B_24] ?
73.2

Value lookup for apparent KD of K4 kissing-loop reporter; key = GAACGGCGGGCGGCCGCCACUGGUAUACGAGUGAUGUUCGGAUAUACAUAAAAUAAGGUAAUUAACAGGACCGGGUCAGAGCCGG [Tryptophan B Same State; Euphoria Solution]
118

Need apparent KD of K4 kissing-loop reporter, item UAAGAAUAAGUAGCAGUGAUGUUGCUACUGCGAGGACCGGUACGGCCGCCACUCGAGUCCUCGAAACAUCACUGAACGAGGAAUA [whbob_SS_Tryp_A_m11]
270

Can you share its apparent KD of K4 kissing-loop reporter? I mean this sequence: GAUAAAUUGAUGCGUAGUGAUGCACGGGAAGGAGCGCGUUUUUUCGCAGGUAGGUCGCCCGACUGCGCGUUUCGAGUGAUGUUCG [5.)]
172

Consider now this further sequence.
Can you look up the measured apparent KD of K4 kissing-loop reporter of `GCCGUACGCAUGGAUACCAGUUGCGAAGUGAUGUUUCGGGCGAUCAAAGGAUCGCCAGACAACCCUUGGCAGCCAUGCGUACGGC` for me?
674
